Experiment: Half life in rat liver microsome
Assay type: ADME
Details: liver microsomes
Each entry below carries its reported half-life.
Respond numerically; units are min and should not be typed.

# structureSmilesString, half-life, min
data = [
    ("CS(=O)(=O)c1ccc(-c2cccc(-c3c(Cc4ccccc4)cnc4c(C(F)(F)F)cccc34)c2)cc1", 7),
]

Give the measured half-life for Cc1ccc(-c2cccc(-c3c(C)cnc4c(C(F)(F)F)cccc34)c2)cc1S(C)(=O)=O
27

====

Each entry below carries its reported half-life.
Assay: Half life in rat liver microsome
Assay type: ADME
Conditions: liver microsomes

# structureSmilesString, half-life
records = [
    ("CC(C)c1cnc2c(C(F)(F)F)cccc2c1-c1cccc(-c2cccc(S(C)(=O)=O)c2)c1", "> 30 min"),
    ("CS(=O)(=O)c1ccc(-c2cccc(-c3ccnc4c(C(F)(F)F)cccc34)c2)cc1", "> 30 min"),
]

Give the measured half-life for CCS(=O)(=O)c1cccc(-c2cccc(-c3c(C)cnc4c(C(F)(F)F)cccc34)c2)c1
> 30 min
